fitness listing for selected compounds.
System: B. subtilis 168;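 note: OD595 on entry to stationary phase over no-drug wells; at most 1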
Test: fitness (endpoint OD595 vs no drug) (fraction); higher = more growth
Conditions: first compound 0.0039 µg/mL; partner 0.125 µg/mL; one replicate
Format: numeric value only, no unit, no commentary.

Request: // map CCC[C@@H]1C[C@@H](C(=O)N[C@@H]([C@H]2O[C@H](SC)[C@H](O)[C@@H](O)[C@H]2O)[C@H](C)Cl)N(C)C1 [Clindamycin] + COc1c(N2C[C@@H]3CCCN[C@@H]3C2)c(F)cc2c(=O)c(C(=O)O)cn(C3CC3)c12 [Moxifloxacin] to recorded fitness (system: B. subtilis 168);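 note: OD595 on entry to stationary phase over no-drug wells; at most 1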
Response: 0.0192

Request: // map CCC[C@@H]1C[C@@H](C(=O)N[C@@H]([C@H]2O[C@H](SC)[C@H](O)[C@@H](O)[C@H]2O)[C@H](C)Cl)N(C)C1 [Clindamycin] + CC(=O)NC[C@H]1CN(c2ccc(N3CCOCC3)c(F)c2)C(=O)O1 [Linezolid] to recorded fitness (system: B. subtilis 168);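 note: OD595 on entry to stationary phase over no-drug wells; at most 1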
Response: 0.943

Request: // map CCC[C@@H]1C[C@@H](C(=O)N[C@@H]([C@H]2O[C@H](SC)[C@H](O)[C@@H](O)[C@H]2O)[C@H](C)Cl)N(C)C1 [Clindamycin] + CC1=C\[C@@H](O)CC(=O)Cc2nc(co2)C(=O)N2CCC=C2C(=O)O[C@H](C(C)C)[C@H](C)/C=C/C(=O)NC\C=C\1 [Virginiamycin M1] to recorded fitness (system: B. subtilis 168);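 note: OD595 on entry to stationary phase over no-drug wells; at most 1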
Response: 0.94

Request: // map CCC[C@@H]1C[C@@H](C(=O)N[C@@H]([C@H]2O[C@H](SC)[C@H](O)[C@@H](O)[C@H]2O)[C@H](C)Cl)N(C)C1 [Clindamycin] + COc1cc(Cc2cnc(N)nc2N)cc(OC)c1OC [Trimethoprim] to recorded fitness (system: B. subtilis 168);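 note: OD595 on entry to stationary phase over no-drug wells; at most 1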
Response: 0.663

Request: // map CCC[C@@H]1C[C@@H](C(=O)N[C@@H]([C@H]2O[C@H](SC)[C@H](O)[C@@H](O)[C@H]2O)[C@H](C)Cl)N(C)C1 [Clindamycin] + N[C@@H]1CONC1=O [Cycloserine D] to recorded fitness (system: B. subtilis 168);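 note: OD595 on entry to stationary phase over no-drug wells; at most 1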
Response: 0.985

---

Test system: S. aureus Newman;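 note: first quartile when negative (synergy) and third quartile when positive (antagonism)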
Test: Bliss interaction score (quartile over a dose matrix) (fitness difference); higher = more antagonism (negative = synergy)
measurement-name: Bliss interaction score
Format: numeric value only, no unit, no commentary.

N[C@@H]1CONC1=O [CycloserineD] + CCN(CC)CCOC(=O)c1ccc(N)cc1 [Procaine] | 0.0381

Request: Consider the molecule COc1c(N2C[C@@H]3CCCN[C@@H]3C2)c(F)cc2c(=O)c(C(=O)O)cn(C3CC3)c12 [Moxifloxacin] + COc1ccc(C[C@H](N)C(=O)N[C@H]2[C@@H](O)[C@H](n3cnc4c(N(C)C)ncnc43)O[C@@H]2CO)cc1 [Puromycin] and give its measured Bliss interaction score.
Response: 0.0443

Request: Consider the molecule CCC[C@@H]1C[C@@H](C(=O)N[C@@H]([C@H]2O[C@H](SC)[C@H](O)[C@@H](O)[C@H]2O)[C@@H](C)O)N(C)C1 [Lincomycin] + CO[C@H]1/C=C/O[C@@]2(C)Oc3c(C)c(O)c4c(O)c(c(/C=N/N5CCN(C)CC5)c(O)c4c3C2=O)NC(=O)/C(C)=C\C=C\[C@H](C)[C@H](O)[C@@H](C)[C@@H](O)[C@@H](C)[C@H](OC(C)=O)[C@@H]1C [Rifampicin] and give its measured Bliss interaction score.
Response: 0.0333

Request: Consider the molecule O=C(N[C@H](CO)[C@H](O)c1ccc([N+](=O)[O-])cc1)C(Cl)Cl [Chloramphenicol] + CO[C@H]1/C=C/O[C@@]2(C)Oc3c(C)c(O)c4c(O)c(c(/C=N/N5CCN(C)CC5)c(O)c4c3C2=O)NC(=O)/C(C)=C\C=C\[C@H](C)[C@H](O)[C@@H](C)[C@@H](O)[C@@H](C)[C@H](OC(C)=O)[C@@H]1C [Rifampicin] and give its measured Bliss interaction score.
Response: 0.0185

Request: Consider the molecule C[C@@H](O)[C@H]1C(=O)N2C(C(=O)O)=C(SCCNC=N)C[C@H]12 [Imipenem] + CC1=C\[C@@H](O)CC(=O)Cc2nc(co2)C(=O)N2CCC=C2C(=O)O[C@H](C(C)C)[C@H](C)/C=C/C(=O)NC\C=C\1 [Virginiamycin M1] and give its measured Bliss interaction score.
Response: -0.0199

Request: Consider the molecule N[C@@H]1CONC1=O [CycloserineD] + CN[C@H](CC(C)C)C(=O)N[C@H]1C(=O)N[C@@H](CC(N)=O)C(=O)N[C@H]2C(=O)N[C@H]3C(=O)N[C@H](C(=O)N[C@H](C(=O)O)c4cc(O)cc(O)c4-c4cc3ccc4O)[C@H](O[C@H]3C[C@](C)(N)[C@@H](O)[C@H](C)O3)c3ccc(c(Cl)c3)Oc3cc2cc(c3O[C@@H]2O[C@H](CO)[C@@H](O)[C@H](O)[C@H]2O[C@H]2C[C@](C)(NCc3ccc(-c4ccc(Cl)cc4)cc3)[C@@H](O)[C@H](C)O2)Oc2ccc(cc2Cl)[C@H]1O [Oritavancin] and give its measured Bliss interaction score.
Response: 0.0585

Request: Consider the molecule CCC[C@@H]1C[C@@H](C(=O)N[C@@H]([C@H]2O[C@H](SC)[C@H](O)[C@@H](O)[C@H]2O)[C@@H](C)O)N(C)C1 [Lincomycin] + O=C1CN(/N=C/c2ccc([N+](=O)[O-])o2)C(=O)N1 [Nitrofurantoin] and give its measured Bliss interaction score.
Response: -0.101

Reference for the values: the supplement of paper PMC10627819
